Origin of measurements: paper PMC9788556

# Kd values compiled below
Target: T1, Pfs230 D1 (aa 587–731) (Plasmodium falciparum, UniProt P68874 587-731)
T1 chain: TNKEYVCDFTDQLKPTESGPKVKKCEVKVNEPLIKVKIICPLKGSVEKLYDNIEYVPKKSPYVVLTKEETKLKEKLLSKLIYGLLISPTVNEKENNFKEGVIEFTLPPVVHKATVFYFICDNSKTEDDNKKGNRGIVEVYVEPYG
Assay: BLI
PROPERTY NAME: Kd (nM)

BINDER: nanobody A10 (VHH) VHH: QVQLQESGGGLVQAGSSLRLSCAASGGTFSNYAMGWFRQAPGKEREFVAAIGWSGGTYYTDSVEGRFTISRDNAKNTVYLQMNSLKPEDTAVYYCAAKRSGSSWSERGYDYWGQGTQVTVSS
PROPERTY NAME: Kd
RECORDED RESULT: 3.18
--
BINDER: nanobody D6 (VHH) VHH: QVQLQESGGGLVQAGDSLRLSCAASGRTFSSYFMGWFRQAPGKEREFVAAISWSGGSTYYADSVKGRFTISRDNVKNTVYLQMNSLEPEDAAVYYCAGGGSYYPMSPRNGMDYWGKGTQVTVSS
PROPERTY NAME: Kd
RECORDED RESULT: 0.39
--
BINDER: nanobody D11 (VHH) VHH: QVQLQESGGGLVQAGSSLRLSCAASGRTFSSYAMGWFRQAPGKEREFVAAIGWSGGTYYTDSVEGRFTISRDNAENTVYLQMNSLKPEDTAVYYCAAKASGSSWSERGYDYWGQGTQVTVSS
PROPERTY NAME: Kd
RECORDED RESULT: 8.31
--
BINDER: nanobody F5 (VHH) VHH: QVQLQESGGGLVQPGGSLRLSCAASGFTLDRYAIGWFRQAPGKEREGVSCISSSDGSTYYADSVKGRFTISRDNAKNTVYLQMNSLKPEDTAVYYCARDHGPCTVLADILYDYGMDYWGKGTQVTVSS
PROPERTY NAME: Kd
RECORDED RESULT: 0.81
--
BINDER: nanobody G5 (VHH) VHH: QVQLQESGGGLVQAGGSLRLSCAASGRTFNDYAMYWFRQAPGKEREFVADITWSGSSTYYADSVKGRFTISRDNAKNTVFLQMNSLKPEDTALYYCAADSRYYGIGIGTPRYWGQGTQVTVSS
PROPERTY NAME: Kd
RECORDED RESULT: 3.36
--
BINDER: nanobody E1 (VHH) VHH: QVQLQESGGGLVQPGGSLRLSCAASGRTFSSYFMGWFRQAPGKGRVFVASISWSGGSTYYADSVKGRFTISRDNAENTVYLQMNSLKPEDTAVYYCAAGTRATPLDWASGMDYWGKGTQVTVSS
PROPERTY NAME: Kd
RECORDED RESULT: 0.75
--
BINDER: nanobody D1 (VHH) VHH: QVQLQESGGGLVQAGDSLRLSCTASGRTFSNHAMGWFRQAPGKEREIVAVIFGTGRNSWYVDSVKGRFTISRDNAKNTVALQMNRLKPEDTAVYYCASGRTWYSGSSMAEYDYWGQGTQVTVSS
PROPERTY NAME: Kd
RECORDED RESULT: 0.14
--
BINDER: nanobody A11 (VHH) VHH: QVQLQESGGGLVQPGESLRLSCAASGRTSSSYAMGWFRQAPGKEREFVASISWSGGSTYYADSVKGRFTLSRDNAKNTVYLQMNSLKPEDTAVYYCAADGIFYSDYPLSVDDFHSWGQGTQVTVSS
PROPERTY NAME: Kd
RECORDED RESULT: 1.56
